Test system: MiaPaCa2 cells
measurement_protocol: MTS viability assay, MiaPaCa2 pancreas cancer cells
Assay type: cell-based, human
experimental_conditions: Table 6, 48 h, read-out: MiaPaCa2 CC90
experimental_endpoint: CC90 (µM)
Just the number in µM, nothing appended.

stdin: Which CC90 value is on record for CCCCCCCCCCCCCCCCOC[C@H](COC1O[C@H](CNCCCCCCCCCCCCN)[C@@H](O)[C@H](O)[C@H]1N)OC (stereo partly shown) ?
stdout: 6.6

stdin: Further, for CCCCCCCCCCCCCCCCOC[C@H](COC1O[C@H](CN)[C@@H](O)[C@H](O)[C@H]1NCCCCCCCCCCCCN)OC (stereo partly shown) ?
stdout: 12

###

Test system: PC3 cells
measurement_protocol: MTS viability assay, PC3 prostate cancer cells
Type: cell-based, human
experimental_conditions: Table 6; 48 h, MTS; read-out: PC3 CC90
experimental_endpoint: CC90 (µM)
Just the number in µM, nothing appended.

stdin: Which CC90 value is on record for CCCCCCCCCCCCCCCCOC[C@H](COC1O[C@H](CNCCCCCCCCCCCCN)[C@@H](O)[C@H](O)[C@H]1N)OC (stereo partly shown) ?
stdout: 3.2

stdin: Further, for CCCCCCCCCCCCCCCCOC[C@H](COC1O[C@H](CN)[C@@H](O)[C@H](O)[C@H]1NCCCCCCCCCCCCN)OC (stereo partly shown) ?
stdout: 11.5

stdin: Further, for CCCCCCCCCCCCCCCCOC[C@H](COC1O[C@H](CNCCCN)[C@@H](O)[C@H](O)[C@H]1N)OC (stereo partly shown) ?
stdout: 20

###

Tested on: PC3 cells
measurement_protocol: MTS viability assay, PC3 prostate cancer cells
Assay type: cell-based, human
experimental_conditions: read-out: CC50 against PC-3 cell lines
experimental_endpoint: CC50 (µM)
Just the number in µM, nothing appended.

stdin: Which CC50 value is on record for CCCCCCCCCCCCCCCCOC[C@@H](CN=[N+]=[N-])O[C@@H]1O[C@H](CO)[C@@H](O)[C@H](O)[C@H]1N [Compound 6] ?
stdout: 6

###

System: DU145 cells
measurement_protocol: MTS viability assay, DU145 prostate cancer cells
Type: cell-based, human
experimental_conditions: Table 1A, 48 h, read-out: CC50 values DU 145
So I've got a bunch of compounds here, and I need their CC50 values.
Just the number in µM, nothing appended.

stdin: Which CC50 value is on record for CCCCCCCCCCCCCCCCOCCCO[C@@H]1O[C@H](CN)[C@@H](O)[C@H](O)[C@H]1N ?
stdout: 6

stdin: Further, for CCCCCCCCCCCCCCCCOC[C@@H](CN=[N+]=[N-])O[C@@H]1O[C@H](CO)[C@@H](O)[C@H](O)[C@H]1N ?
stdout: 12.5

stdin: Further, for CCCCCCCCCCCCCCCCOCC(N)CO[C@H]1O[C@H](CO)[C@@H](O)[C@H](O)[C@H]1N (some centres unmarked) ?
stdout: 6

stdin: Further, for CCCCCCCCCCCCCCCCOC[C@H](CO[C@@H]1O[C@H](CN)[C@@H](O)[C@H](O)[C@H]1N)OC ?
stdout: 6

stdin: Further, for CCCCCCCCCCCCCCCCOC[C@@H](CN)O[C@H]1O[C@H](CO)[C@@H](O)[C@H](O)[C@H]1N ?
stdout: 17.5

###

System: JIMT-1 cells
measurement_protocol: MTS viability assay, JIMT-1 breast cancer cells
Format: cell-based, human
experimental_conditions: Table 1A, 48 h, read-out: CC50 values JIMT1
Could you mark each record YES if its CC50 falls strictly under 6 µM, and NO if it equals or exceeds it?

stdin: Is CC50 strictly under 6 µM for the entry CCCCCCCCCCCCCCCCOCC(CO[C@@H]1O[C@H](CN)[C@@H](O)[C@H](O)[C@H]1N)O[C@@H]1O[C@H](CN)[C@@H](O)[C@H](O)[C@H]1N (some centres unmarked) [Compound 5] ?
stdout: NO

stdin: Further, for CCCCCCCCCCCCCCCCOCC(CO[C@@H]1O[C@H](CO)[C@@H](O)[C@H](O)[C@H]1N)NC(=O)CCCCCCCCCCCCCCC (some centres unmarked) [Compound 9] ?
stdout: NO

stdin: Further, for CCCCCCCCCCCCCCCCOCCCO[C@@H]1O[C@H](CN)[C@@H](O)[C@H](O)[C@H]1N [Compound 4] ?
stdout: YES

stdin: Further, for CCCCCCCCCCCCCCCCOC[C@H](CO[C@@H]1O[C@H](CN)[C@@H](O)[C@H](O)[C@H]1N)OC [Compound 2] ?
stdout: YES

stdin: Further, for CCCCCCCCCCCCCCCCOCC(N)CO[C@H]1O[C@H](CO)[C@@H](O)[C@H](O)[C@H]1N (some centres unmarked) [Compound 8] ?
stdout: YES

stdin: Further, for CCCCCCCCCCCCCCCCOC[C@@H](CN)O[C@H]1O[C@H](CO)[C@@H](O)[C@H](O)[C@H]1N [Compound 7] ?
stdout: NO

stdin: Further, for CCCCCCCCCCCCCCCCOC[C@@H](CN=[N+]=[N-])O[C@@H]1O[C@H](CO)[C@@H](O)[C@H](O)[C@H]1N [Compound 6] ?
stdout: NO

stdin: Further, for CCCCCCCCCCCCCCCCOC[C@H](CO[C@H]1O[C@H](CN)[C@@H](O)[C@H](O)[C@H]1N1C(=O)c2ccccc2C1=O)OC [Compound 3] ?
stdout: NO

###

So I've got a bunch of compounds here, and I need their CC90 values.
Test system: DU145 cells
measurement_protocol: MTS viability assay, DU145 prostate cancer cells
Format: cell-based, human
experimental_conditions: Table 1B, 48 h, read-out: CC90 values DU 145
Just the number in µM, nothing appended.

stdin: Which CC90 value is on record for CCCCCCCCCCCCCCCCOC[C@H](CO[C@@H]1O[C@H](CN)[C@@H](O)[C@H](O)[C@H]1N)OC ?
stdout: 8.5

stdin: Further, for CCCCCCCCCCCCCCCCOC[C@@H](CN=[N+]=[N-])O[C@@H]1O[C@H](CO)[C@@H](O)[C@H](O)[C@H]1N ?
stdout: 18

stdin: Further, for CCCCCCCCCCCCCCCCOCCCO[C@@H]1O[C@H](CN)[C@@H](O)[C@H](O)[C@H]1N ?
stdout: 8.5

stdin: Further, for CCCCCCCCCCCCCCCCOC[C@@H](CN)O[C@H]1O[C@H](CO)[C@@H](O)[C@H](O)[C@H]1N ?
stdout: 25

stdin: Further, for CCCCCCCCCCCCCCCCOCC(N)CO[C@H]1O[C@H](CO)[C@@H](O)[C@H](O)[C@H]1N (some centres unmarked) ?
stdout: 9

###

Tested on: BT-474 cells
measurement_protocol: MTS viability assay, BT-474 breast cancer cells
Type: cell-based, human
experimental_conditions: Table 1B; 48 h, MTS; read-out: CC90 values BT474
experimental_endpoint: CC90 (µM)
Just the number in µM, nothing appended.

stdin: Missing value: CC90, BT-474 cells, entry CCCCCCCCCCCCCCCCOCCCO[C@@H]1O[C@H](CN)[C@@H](O)[C@H](O)[C@H]1N . Fill in?
stdout: 17.5

stdin: Further, for CCCCCCCCCCCCCCCCOC[C@@H](CN=[N+]=[N-])O[C@@H]1O[C@H](CO)[C@@H](O)[C@H](O)[C@H]1N ?
stdout: 28

stdin: Further, for CCCCCCCCCCCCCCCCOCC(N)CO[C@H]1O[C@H](CO)[C@@H](O)[C@H](O)[C@H]1N (stereo partly shown) ?
stdout: 28

stdin: Further, for CCCCCCCCCCCCCCCCOC[C@H](CO[C@@H]1O[C@H](CN)[C@@H](O)[C@H](O)[C@H]1N)OC ?
stdout: 14

###

System: MDA-MB-231 cells
measurement_protocol: MTS viability assay, MDA-MB-231 breast cancer cells
Format: cell-based, human
experimental_conditions: Table 6, 48 h, read-out: MB-MDA-231 CC50
So I've got a bunch of compounds here, and I need their CC50 values.
Just the number in µM, nothing appended.

stdin: Which CC50 value is on record for CCCCCCCCCCCCCCCCOC[C@H](COC1O[C@H](CNCCCN)[C@@H](O)[C@H](O)[C@H]1N)OC (stereo partly shown) ?
stdout: 13.5

stdin: Further, for CCCCCCCCCCCCCCCCOC[C@H](COC1O[C@H](CN)[C@@H](O)[C@H](O)[C@H]1NCCCCCCCCCCCCN)OC (stereo partly shown) ?
stdout: 5.5

stdin: Further, for CCCCCCCCCCCCCCCCOC[C@H](COC1O[C@H](CN)[C@@H](O)[C@H](O)[C@H]1NCCCN)OC (stereo partly shown) ?
stdout: 17.5

stdin: Further, for CCCCCCCCCCCCCCCCOC[C@H](COC1O[C@H](CNCCCCCCCCCCCCN)[C@@H](O)[C@H](O)[C@H]1N)OC (stereo partly shown) ?
stdout: 1.5
